study_target: Solute carrier family 22 member 1 (Homo sapiens, UniProt O15245)
Sequence (O15245 whole entry): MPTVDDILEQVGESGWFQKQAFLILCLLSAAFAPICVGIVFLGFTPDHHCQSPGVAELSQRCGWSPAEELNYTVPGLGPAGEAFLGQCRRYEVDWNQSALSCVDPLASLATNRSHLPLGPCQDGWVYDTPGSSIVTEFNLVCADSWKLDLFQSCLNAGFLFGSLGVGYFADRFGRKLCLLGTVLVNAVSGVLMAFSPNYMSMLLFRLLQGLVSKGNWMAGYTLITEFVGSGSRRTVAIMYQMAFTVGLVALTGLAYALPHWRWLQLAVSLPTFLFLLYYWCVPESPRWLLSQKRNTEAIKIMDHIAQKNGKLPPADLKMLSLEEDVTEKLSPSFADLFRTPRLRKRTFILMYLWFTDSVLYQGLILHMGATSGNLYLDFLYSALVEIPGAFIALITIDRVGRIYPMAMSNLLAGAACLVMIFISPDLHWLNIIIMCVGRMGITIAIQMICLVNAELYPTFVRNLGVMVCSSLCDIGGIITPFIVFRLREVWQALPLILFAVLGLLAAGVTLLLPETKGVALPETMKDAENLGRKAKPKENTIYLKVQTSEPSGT
Would you mind telling me the reported IC50 of each entry?
Answers are plain numbers, in µM.

compound="CC(COc1ccccc1)N(CCCl)Cc1ccccc1 (stereo not given) [PHENOXYBENZAMINE]" study_target="Solute carrier family 22 member 1 (Homo sapiens, UniProt O15245)" test_result=15.1
compound="N=C(N)NC(=O)c1nc(Cl)c(N)nc1N [AMILORIDE]" study_target="Solute carrier family 22 member 1 (Homo sapiens, UniProt O15245)" test_result=57
compound="COc1ccc(CCNC[C@H](O)c2ccc(O)cc2)cc1OC [DENOPAMINE]" study_target="Solute carrier family 22 member 1 (Homo sapiens, UniProt O15245)" test_result=46.9
compound="CC(C)(Cc1c[nH]c2ccccc12)NCC(O)COc1ccccc1C#N (stereo not given) [BUCINDOLOL]" study_target="Solute carrier family 22 member 1 (Homo sapiens, UniProt O15245)" test_result=27.2

List IC50 for every entry below, keeping the order given.
1. CN(C)CCCN1c2ccccc2CCc2ccccc21 [IMIPRAMINE]
2. CN1CCN(CCCN2c3ccccc3Sc3ccc(Cl)cc32)CC1 [PROCHLORPERAZINE]
3. CN(C)CC/C=C1/c2ccccc2Sc2ccc(Cl)cc21 [CHLORPROTHIXENE]

Response:
[17.1, 49.6, 77.8]

List IC50 for every entry below, keeping the order given.
1. C[N+]1(C)CCCC(OC(=O)C(O)(c2ccccc2)c2ccccc2)C1 (stereo not given) [MEPENZOLATE BROMIDE]
2. OCCN1CCN(CCCN2c3ccccc3Sc3ccc(C(F)(F)F)cc32)CC1 [FLUPHENAZINE]
3. COc1cc2nc(N3CCN(C(=O)C4CCCO4)CC3)nc(N)c2cc1OC (stereo not given) [TERAZOSIN]
4. COc1cc(NS(C)(=O)=O)ccc1Nc1c2ccccc2nc2ccccc12 [AMSACRINE]
5. CC(CN1c2ccccc2Sc2ccccc21)N(C)C (stereo not given) [PROMETHAZINE]
6. COc1cc2nc(N3CCN(C(=O)c4ccco4)CC3)nc(N)c2cc1OC [PRAZOSIN]

Response:
1: 64.9; 2: 110; 3: 23.7; 4: 5; 5: 35.1; 6: 9.9
